# target: T1, His‐tagged GCase wt (10xHis, C‐terminal, TEV‐cleavable) (human, UniProt P04062-1 40-536, red fluorescent dye NT-637 on amines (RED-NHS labelling kit), for MST)
# T1 construct: human beta-glucocerebrosidase (GCase) wild type, secreted from cells transfected with pCMV-3-GBA-His; also called GCase-His; source: HEK 293F, transfected, purified from conditioned medium (Ni-NTA); not shown: 10xHis (TEV-cleavable), C-terminal, kept
# T1 sequence (looked up): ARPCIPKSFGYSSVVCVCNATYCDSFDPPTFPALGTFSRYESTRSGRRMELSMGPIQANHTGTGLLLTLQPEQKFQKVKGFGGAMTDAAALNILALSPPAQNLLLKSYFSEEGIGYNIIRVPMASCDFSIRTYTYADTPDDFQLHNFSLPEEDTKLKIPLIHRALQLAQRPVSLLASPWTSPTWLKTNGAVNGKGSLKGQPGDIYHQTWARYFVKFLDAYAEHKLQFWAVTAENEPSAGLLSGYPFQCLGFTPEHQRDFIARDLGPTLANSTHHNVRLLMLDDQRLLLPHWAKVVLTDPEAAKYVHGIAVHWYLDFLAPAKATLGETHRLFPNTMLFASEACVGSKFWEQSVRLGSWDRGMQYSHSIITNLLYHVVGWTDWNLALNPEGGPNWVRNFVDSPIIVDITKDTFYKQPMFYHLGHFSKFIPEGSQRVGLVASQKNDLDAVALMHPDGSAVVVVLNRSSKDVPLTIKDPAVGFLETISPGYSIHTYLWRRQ
# assay-procedure: MST; GCase-His labelled with NT-637, fixed at 25 nM; L2H5-wt titrated in a twofold series of 16 from 125 µM; 50 mM sodium citrate + 0.05% Tween-20, pH 7.4 (cytosolic pH); ambient temperature; the two highest concentrations left out of the Kd fit
# conditions-used: both partners purified
pKd: −log10 of the molar value. *: point of attachment. Biotin = O=C1N[C@H]2[C@H](CS[C@H]2CCCCC(=O)*)N1
readout-kind: pKd

binder	readout-kind	number
Biotin-KFERQGSGSQVHFLREIIEAMLKAYQSGSGYGRKKRRQRRR-NH2 (also called LIMP-2-derived peptide; LIMP-2-mimicking peptide; source: synthetic peptide (BioCat, >95% purity)) [L2H5‐wt peptide (LIMP‐2‐derived helix 5 peptide)]	pKd	6.82
